system: RPMI-8226 leukemia; experiment: NCI-60 one-dose screen, 48 h (100 = growth as untreated, 0 = no growth, -100 = all killed); details: 10 µM unless noted
Compounds without any hit were thinned out: in the full panel of roughly 83,000, 20% have a hit.
Would you mind sorting the entries by growth according to these classes? lowest = under 40%, middle = from 40% up to 70%, highest = 70% and over

Reference set (5 entries):
Quick check: band for CNC(=O)c1cc(Oc2ccc(NC(=O)c3nc(S(C)(=O)=O)n(C)c3-c3ccc(F)cc3)cc2)ccn1
middle

Quick check: band for COc1ccc2[nH]cc(/C=C3\C(=O)Nc4ccccc43)c2c1
lowest

Quick check: band for CCCc1cc2c(cc1CN(Cc1cc3c(cc1CCC)OCO3)C(=N)OCC)OCO2
middle

Quick check: band for C=C(CN1CC=CCC1)[C@@H]1CC[C@]2(C(=O)OC)CC[C@]3(C)[C@H](CC[C@@H]4[C@@]5(C)CC[C@H](OC(C)=O)C(C)(C)[C@@H]5CC[C@]43C)[C@@H]12
middle

Quick check: band for O=C(Nc1ccc(Cl)c(C(F)(F)F)c1)c1ccc(Nc2ccc(Cl)nn2)cc1
lowest

Attention now turns to another entry.
Quick check: band for O=C1C=CC(=O)N1c1cccc(N2C(=O)C=CC2=O)c1
highest

Values compiled from PubChem BioAssay (NCI).
